- Experimental System: BACE1 (Homo sapiens (Human))
- Sequence (P56817 46-457): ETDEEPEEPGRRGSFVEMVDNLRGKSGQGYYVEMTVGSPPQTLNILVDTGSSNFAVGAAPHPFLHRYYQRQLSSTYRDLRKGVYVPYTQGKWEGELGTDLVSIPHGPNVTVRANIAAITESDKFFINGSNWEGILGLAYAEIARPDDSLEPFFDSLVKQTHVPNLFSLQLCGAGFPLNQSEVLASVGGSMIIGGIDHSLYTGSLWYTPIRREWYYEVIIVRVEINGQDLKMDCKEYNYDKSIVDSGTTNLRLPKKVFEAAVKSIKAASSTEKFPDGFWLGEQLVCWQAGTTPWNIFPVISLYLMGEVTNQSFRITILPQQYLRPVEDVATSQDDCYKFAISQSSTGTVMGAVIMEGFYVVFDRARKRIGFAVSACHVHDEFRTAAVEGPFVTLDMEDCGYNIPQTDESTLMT
- Test Summary: BACE1 Cell-Free Assay (fluorescence polarization)
- Format: biochemical
- Measurement Context: geometric mean of 2-4 determinations unless otherwise indicated (b: ≧5; c: single determination); read-out: BACE1 Cell-free Assay IC50
Structures can show the parent of a compound that is named as a salt.
Please respond with criterion met when measured IC50 is strictly beneath 1000 nM, and with criterion not met in all other cases.

> print(dat)
                                   compound                cat
1  Cc1noc(C(=O)Nc2csc([C@]34CO[C@@H](C)C[C@H]3CSC(N)=N4)n2)n1 [Example 51]      criterion met
2  C[C@H]1C[C@H]2CSC(N)=N[C@@]2(c2nc(NC(=O)c3cn(C)nc3C(F)(F)F)cs2)CO1 [Example 60, trifluoroacetate salt]  criterion not met
3  C[C@H]1C[C@H]2CSC(N)=N[C@@]2(c2nc(NC(=O)c3ncnn3C)cs2)CO1 [Example 74, trifluoroacetate salt]  criterion not met
4  C[C@H]1C[C@H]2CSC(N)=N[C@@]2(c2nc(NC(=O)c3ccc(OCC#N)cn3)cs2)CO1 [Example 101]      criterion met
5  CC(C)c1nc(C(=O)Nc2csc([C@]34CO[C@@H](C)C[C@H]3CSC(N)=N4)n2)co1 [Example 86]  criterion not met
6  C[C@H](F)COc1cnc(C(=O)Nc2csc([C@]34CO[C@@H](C)C[C@H]3CSC(N)=N4)n2)cn1 [Example 57]      criterion met

Origin of the recorded values: patent US9315520B2
